// data source = patent US20170029481A1

Target: T1, erythropoietin receptor, human recombinant (NSO cells) (human, UniProt P19235 25-250, limits assumed)
T1 construct: also called EPOR; EPO receptor
T1 sequence (looked up): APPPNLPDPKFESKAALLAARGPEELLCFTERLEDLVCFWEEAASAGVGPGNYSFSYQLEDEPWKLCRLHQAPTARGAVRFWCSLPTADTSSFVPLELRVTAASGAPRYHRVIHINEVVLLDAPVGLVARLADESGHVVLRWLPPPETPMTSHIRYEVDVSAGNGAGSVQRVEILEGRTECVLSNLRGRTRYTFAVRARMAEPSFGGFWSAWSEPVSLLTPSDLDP
Assay: radioligand binding, displacement of [125I]EPO
Where no end group is shown, it is not given here.
PROPERTY: Ki
Report the figure along with its unit, number first.

Given the binder NYLCRMGPITWVCKP (not fully specified; cysteine pairing not given here, Structure only as drawing CHEM-US-00005; also called compound 003; Control 2: AC-0005-003) [AC-0005-003] , what is its reported Ki? 81 nM
